Origin of the recorded values: the supplement of paper PMC8728848

target: Gal(b1-3)[GlcNAc(b1-6)]GalNAc
assay info: glycan array binding signal (z-score within array); higher = stronger binding
conditions: glycan notation: IUPAC condensed, linker removed
The entries come from a sample that favours the strongest signals as a whole.
outcome measure: glycan array binding signal (z-score)
API doc: respond with a numeric literal and nothing else, no unit.

Entry Clec12b (Mus musculus), Q149M0 (protein) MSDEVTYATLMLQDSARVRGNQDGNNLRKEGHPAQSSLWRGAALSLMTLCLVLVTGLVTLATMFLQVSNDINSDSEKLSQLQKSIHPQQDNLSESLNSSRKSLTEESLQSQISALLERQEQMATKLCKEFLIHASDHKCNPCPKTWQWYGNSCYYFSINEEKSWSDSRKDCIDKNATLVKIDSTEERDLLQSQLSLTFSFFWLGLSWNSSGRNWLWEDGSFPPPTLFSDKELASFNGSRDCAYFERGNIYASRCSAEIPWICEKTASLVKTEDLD ; glycan array binding signal (z-score) = -0.137

Entry ASAL (Allium sativum), P83886 (protein) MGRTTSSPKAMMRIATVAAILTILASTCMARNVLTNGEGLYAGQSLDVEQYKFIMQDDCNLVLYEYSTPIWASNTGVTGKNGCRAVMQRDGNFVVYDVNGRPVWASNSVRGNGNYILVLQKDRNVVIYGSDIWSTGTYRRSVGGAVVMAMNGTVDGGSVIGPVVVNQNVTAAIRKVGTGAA ; glycan array binding signal (z-score) = -0.267

Entry HFR-3 (Triticum aestivum) (protein) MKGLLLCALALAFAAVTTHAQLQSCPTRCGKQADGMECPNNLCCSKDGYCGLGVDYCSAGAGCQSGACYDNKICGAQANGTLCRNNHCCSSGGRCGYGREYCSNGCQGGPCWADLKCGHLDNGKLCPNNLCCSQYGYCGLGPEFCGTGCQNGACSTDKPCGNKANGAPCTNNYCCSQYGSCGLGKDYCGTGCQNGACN ; glycan array binding signal (z-score) = -0.111
